Reference for the values: patent US20240217981A1

Target: UniProt P08172
Sequence (P08172 1-466): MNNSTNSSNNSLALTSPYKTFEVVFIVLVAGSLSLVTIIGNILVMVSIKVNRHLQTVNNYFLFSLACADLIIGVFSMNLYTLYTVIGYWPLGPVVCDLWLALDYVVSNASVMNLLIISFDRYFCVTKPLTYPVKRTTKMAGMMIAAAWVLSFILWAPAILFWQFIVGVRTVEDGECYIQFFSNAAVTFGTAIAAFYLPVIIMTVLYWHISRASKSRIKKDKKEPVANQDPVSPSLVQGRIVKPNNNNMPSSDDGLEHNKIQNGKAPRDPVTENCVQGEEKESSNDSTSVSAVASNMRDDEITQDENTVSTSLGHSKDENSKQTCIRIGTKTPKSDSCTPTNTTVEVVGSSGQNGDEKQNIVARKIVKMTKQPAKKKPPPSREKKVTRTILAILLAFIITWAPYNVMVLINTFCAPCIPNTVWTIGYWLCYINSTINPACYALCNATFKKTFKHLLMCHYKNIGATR
Assay: In vitro functional assay of muscarinic acetylcholine receptor activity (aequorin calcium flux, reversal of acetylcholine EC50 response)
Conditions: CHO-K1 cells expressing human M2 receptor with aequorin; acetylcholine at EC50
pIC50: −log10 of the molar value.
testReadout: pIC50

Assign pIC50 to the following record: "COc1cc(C(F)(F)CCC(=O)N2CC3CCC(C2)N3c2ccc(C#N)cn2)ccn1"
5.00 to 6.00

---

Assay: Kinetic solubility evaluation
Format: physicochemical
Settings: thermodynamic from solid; FeSSIF (pH 4.99), 37° C., 24 hrs; read-out: S (Solubility of freebase)
testReadout: solubility at 24 h (µg/mL)
Give the value, in units of µg/mL, as a plain number.

Assign solubility at 24 h to the following record: "COc1cc(C(F)(F)CCC(=O)N2CC3CCC(C2)N3c2ccc(C#N)cn2)ccn1"
60

---

Assay: Kinetic solubility evaluation
Format: physicochemical
Conditions: thermodynamic from solid; FeSSIF (pH 4.99), 37° C., 4 hrs; read-out: S (Solubility of freebase)
testReadout: solubility at 4 h (µg/mL)
Give the value, in units of µg/mL, as a plain number.

Assign solubility at 4 h to the following record: "COc1cc(C(F)(F)CCC(=O)N2CC3CCC(C2)N3c2ccc(C#N)cn2)ccn1"
60

---

Experiment: Kinetic solubility evaluation
Format: physicochemical
Conditions: pH 1.77, simulated gastric fluid, thermodynamic from solid; SGF, 37° C., over 1 hr, 4 hrs and 24 hrs; read-out: solubility in SGF
testReadout: solubility

Assign solubility to the following record: "COc1cc(C(F)(F)CCC(=O)N2CC3CCC(C2)N3c2ccc(C#N)cn2)ccn1"
≤ 150 µg/mL

---

Experiment: Kinetic solubility evaluation
Type: physicochemical
Settings: thermodynamic from solid; FaSSIF (pH 6.47), 37° C., 4 hrs; read-out: S (Solubility of freebase)
testReadout: solubility at 4 h (µg/mL)
Give the value, in units of µg/mL, as a plain number.

Assign solubility at 4 h to the following record: COc1cc(C(F)(F)CCC(=O)N2CC3CCC(C2)N3c2ccc(C#N)cn2)ccn1 [Compound]
30

---

Assay: Kinetic solubility evaluation
Format: physicochemical
Settings: water, thermodynamic from solid; H2O (pH 6.95), 37° C., 1 hr; read-out: S (Solubility of freebase)
testReadout: solubility at 1 h
Report the figure along with its unit, number first.

Assign solubility at 1 h to the following record: COc1cc(C(F)(F)CCC(=O)N2CC3CCC(C2)N3c2ccc(C#N)cn2)ccn1 [Compound]
20 µg/mL
